Tested on: M14 melanoma
Assay: NCI-60 one-dose screen, 48 h
Conditions: 10 µM unless noted
Compounds without any hit were thinned out: in the full panel of roughly 83,000, 20% have a hit. Active and inactive are the calls of the source. The calls were made as follows: active = growth percent below 10; inactive = the rest.
Valid outcomes are listed here; reply with one: active, inactive

Take a look at these entries with their results.
C[N+](C)(C)CC(=O)N/N=C\c1ccco1; inactive
CCOC(=O)Nc1ccc2nc(N3CCCCCC3)sc2c1; inactive
C=C(COC(C)=O)[C@H]1CC/C(C)=C/CC/C(C)=C/CC[C@@]2(C)O[C@H]2C1; inactive
CCSc1cnnc2ccccc12; inactive
O=C(c1ccccc1)C(CCc1ccccn1)CCc1ccccn1; inactive
COc1ccc(Nc2nc(N)nc3c(=O)[nH]ccc23)cc1; inactive
C=C1C(=O)O[C@H]2[C@H]1CC/C(COC(=O)N[C@@H](Cc1c[nH]c3ccccc13)C(=O)OC)=C\CC[C@@]1(C)O[C@@H]21; active
Cc1csc(N/N=C/c2ccncc2)n1; inactive
CCOC(=O)C(Cc1ccccc1)n1c(O)c(/C=N/c2ncc(Cc3ccc(Cl)cc3Cl)s2)sc1=S (stereo unspecified); inactive
CCn1c(=O)c(C(=O)NCCCO)c(O)c2ccccc21; inactive

Then there is this compound:
Data request: Record request — test call for O=C1OC(/C=C/c2ccccc2)=NC/1=C/c1ccccc1[N+](=O)[O-]
Data returned: inactive

---

Test system: SK-MEL-2 melanoma
Experiment: NCI-60 one-dose screen, 48 h (100 = growth as untreated, 0 = no growth, -100 = all killed)
Conditions: 10 µM unless noted
Description: Growth inhibition of the SK-MEL-2 human tumor cell line is measured as a screen for anti-cancer activity. Cells are grown in 96 well plates and exposed to the test compound for 48 hours. Compounds are tested at a single concentration, which is 10^-5 M for most compounds. The reported endpoint is percent growth (GI% or GIPRCNT), where numbers from 0 - 100% represent growth inhibition, and numbers from -100% - 0 represent cell death. For example, a value of 40 represents 60% growth inhibition. […]
This is part of a sample that, as a whole, favours compounds with a hit. Of some 83,000 tested, about 20% had one in any assay.
value_type: growth (%)
Answers are plain numbers, in %.

Record excerpt, results attached:
c1ccc(CCn2cccc2)nc1; 101
CCOC(=O)C1=C(C)NC(=S)NC1c1ccccc1 (configuration not stated); 113
Cc1nc(N)nc2c1CCC(Nc1ccccc1)S2 (configuration not stated); 102
CCOC(=O)N1C2CCC(C2)N1C(=O)OCC; 99
COc1ccccc1/C=N\Nc1ccc([N+](=O)[O-])cn1; 102

Hello, I would appreciate it if you could give growth for each entry below.
1. CC(C)[C@@]12C[C@@H](OC(=O)C3CO3)[C@@](C)(O1)[C@@H]1CC[C@@H](C)[C@H]1[C@@H]2OC(=O)/C=C/c1ccccc1 (some centres not stated)
2. COc1ccc(/C=C/C(=O)CCC(=O)O)cc1OC
3. COc1ccc(/C=C/c2nc(NCCCN(C)C)c3ccccc3n2)cc1
4. CCOC(=O)c1ccc(NC(=O)CSC(N)=O)cc1

Data returned:
[87.9, 97.5, -50.9, 98.6]

---

Please provide measured growth for the entries that follow.
System: NCI-H226 lung
Assay: NCI-60 one-dose screen, 48 h (100 = growth as untreated, 0 = no growth, -100 = all killed)
Conditions: 10 µM unless noted
About 83,000 compounds went through this panel and 20% of them were active in at least one assay; those are over-represented in the sample as a whole.
Answers are plain numbers, in %.

Consider the following illustrative entries.
COc1cc(C2CC(c3ccc(Cl)cc3)=NN2C=O)ccc1Oc1ccnc2cc(Cl)ccc12 (stereo unspecified); 51.4
O=C(/C=C/c1ccc(F)cc1)N1CCN(C(=O)/C=C/c2ccc(C(F)(F)F)cc2)CC1; 108

Would you be so kind as to report growth for each listed record?
1. CCOC(=O)C(CCCCC(NC(C)=O)(C(=O)OCC)C(=O)OCC)(NC(C)=O)C(=O)OCC
2. Cc1c(C(=O)Nc2ccccc2F)sc2c(=O)[nH]cnc12
3. CC(=O)c1ccc(N2C(=O)c3ccc(Oc4ccccc4)cc3C2=O)cc1
4. COC(=O)CSc1ccc(Cl)cc1
5. COc1cccc(/C(C)=N/NC(=O)CSc2nc3ccccc3c(=O)n2CCc2ccc(S(N)(=O)=O)cc2)c1

Data returned:
[105, 102, 98.8, 123, 89.1]

---

Tested on: HS 578T breast
Assay: NCI-60 one-dose screen, 48 h (100 = growth as untreated, 0 = no growth, -100 = all killed)
Settings: 10 µM unless noted
Experimental: Growth inhibition of the HS 578T human tumor cell line is measured as a screen for anti-cancer activity. Cells are grown in 96 well plates and exposed to the test compound for 48 hours. Compounds are tested at a single concentration, which is 10^-5 M for most compounds. The reported endpoint is percent growth (GI% or GIPRCNT), where numbers from 0 - 100% represent growth inhibition, and numbers from -100% - 0 represent cell death. For example, a value of 40 represents 60% growth inhibition. […]
The panel holds about 83,000 compounds, 20% with a hit somewhere; the sample as a whole holds those more often.
// boundary case: growth equal to 90% maps to NOT MET; strictly smaller maps to MET

Would you please look over these solved cases?
CC(C)(C)c1nn(-c2ccccc2)c2c1C(=O)CSC(c1ccc3c(c1)OCO3)N2 (stereo unspecified); NOT MET
OCCN(CCO)c1ccc2ccccc2c1; NOT MET
Fc1cc(-c2cnc3nonc3n2)c(Cl)cc1Cl; NOT MET
ClCCn1cnc2c(SCc3ccccc3Cl)ncnc21; MET
COc1cc(C2CC(c3ccc(Cl)cc3)=NN2C(C)=O)ccc1Oc1nc2c(c(=O)n(C)c(=O)n2C)n1C (stereo unspecified); MET
COc1cnc2c(c1)C(=O)c1c-2n(CCCN2CCCC2)c(=O)c2cc(Cl)ccc12; MET
CC1=C(/C=C/C(C)=C/C=C(C(=O)O)\C(C)=C\C(=O)O)C(C)(C)CCC1; NOT MET
CNC(=O)c1c(NC(=O)c2cccc(C(F)(F)F)c2)sc2c1CCC(=O)C2; MET

Data request: Please state whether growth is below 90% for CN1CCCN(CCNc2nccc(-c3c(-c4cccc(O)c4)nc4sccn34)n2)S1(=O)=O
Data returned: MET

Data request: Determine if CN1C2CCC1/C(=C\c1ccc(F)cc1)C(=O)/C2=C/c1ccc(F)cc1 shows growth strictly lower than 90%.
Data returned: MET

Data request: Please let me know if ClC1=NC(Cl)C(Cl)=N/C1=N\c1ncn[nH]1 (stereo unspecified) shows growth below 90%.
Data returned: NOT MET

---

Tested on: HS 578T breast
Experiment: NCI-60 one-dose screen, 48 h (100 = growth as untreated, 0 = no growth, -100 = all killed)
Conditions: 10 µM unless noted
About 83,000 compounds went through this panel and 20% of them were active in at least one assay; those are over-represented in the sample as a whole.
Binned growth; ranges: zone 1: < 40%; zone 2: ≥ 40% and < 90%; zone 3: ≥ 90%

O=c1c2cc(Br)cc(Br)c2nc(-c2ccc(Cl)cc2)n1/N=C/c1cccc(F)c1; zone 1
O=C(Nc1cccc(N=Cc2c(O)ccc3ccccc23)c1)c1ccccc1; zone 3

Data request: Which class is correct for the following compound? CC1OC(n2c3ccccc3c3c4c(c5c6ccccc6[nH]c5c32)C(=O)N(CCN[C@H]2CCC[C@@H]2N)C4=O)CC(O)C1O (stereo partly drawn)
Data returned: zone 2

Data request: Looking at Cc1ccsc1C(=O)CC(=O)C(F)(F)C(F)(F)C(F)(F)F , which class would you pick?
Data returned: zone 3

Data request: // bin(item) where item = COc1ccc(-c2cnc(-c3ccncc3-c3cccc(OC)c3)o2)cc1
Data returned: zone 2

---

Tested on: SF-268 CNS
Assay: NCI-60 one-dose screen, 48 h (100 = growth as untreated, 0 = no growth, -100 = all killed)
Conditions: 10 µM unless noted
About 83,000 compounds went through this panel and 20% of them were active in at least one assay; those are over-represented in the sample as a whole. The source made the active and inactive calls. Rule for the calls: active = growth percent below 10; inactive = the rest.
value_type: growth

Here's what some known entries look like.
COc1ccc(-c2cnnn2-c2nonc2-n2cccc2)cc1; 35.1% (inactive)
CNC1=C([N+](=O)[O-])C(c2ccccc2O)C(C#N)=C(c2cccs2)O1 (stereo not given); 96.3% (inactive)
CC1(C)CN(CCNc2nccc(-c3c(-c4cccc(O)c4)nc4sccn34)n2)S(=O)(=O)N1; 84% (inactive)
Fc1ccc(-c2cnc3nonc3n2)c(F)c1; 84.8% (inactive)

Next, consider the following molecule.
Data request: Look up growth for this molecule: COc1cc(CN(c2ccc(C)cc2)C2OC(=O)c3ccccc32)cc(OC)c1OC (stereo not given)
Data returned: 34.1% (inactive)

---

Tested on: SK-MEL-2 melanoma
Experiment: NCI-60 one-dose screen, 48 h
Conditions: 10 µM unless noted
The panel holds about 83,000 compounds, 20% with a hit somewhere; the sample as a whole holds those more often. Calls of active or inactive are those of the source. The calls were made as follows: active = growth percent below 10; inactive = the rest.
Respond using exactly one of the listed classes: active, inactive

CN(C)c1nc(-c2cccs2)n2nc(-c3ccco3)cc2n1; inactive
CCN(CC)C(=O)O/N=C(/C)c1ccccc1; inactive
COc1cc2ncnc(Nc3ccc(S(=O)(=O)Nc4nccs4)cc3)c2cc1OCCCN1CCOCC1; inactive
CCN(CCC#N)c1ccccc1; inactive
COc1cc(C2CC(c3ccc(Cl)cc3)=NN2C=O)ccc1Oc1ccnc2cc(Cl)ccc12 (stereo unspecified); inactive

Query compound follows.
Data request: Please state the recorded outcome for this compound: C=C1C(=O)O[C@H]2[C@H]1CC/C(COC(=O)NCc1cn(C)c3ccccc13)=C\CC[C@@]1(C)O[C@@H]21
Data returned: active
